Data provenance: paper PMC5540273

Test system: PRKD1
Details: concentration: 1 μM,replicates: in singlicate; n = 1;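 further: KINOMEscan kinase panel screen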

| COMPOUND | SCALE UNIT | %Inh |
| --- | --- | --- |
| O=C(NCCNc1ccnc(NCc2ccc(F)cc2)n1)c1cc2ccccc2s1 | % | 0 |
| Cc1cc(C(=O)Nc2ccc(Oc3ccc4nc(NC(=O)C5CC5)cn4n3)cc2)nn1-c1ccccc1 | % | 0 |
| Cl.Cl.NC[C@H](Cc1ccc(C(F)(F)F)cc1)NC(=O)c1cc(Br)c(-c2ccnc3[nH]ccc23)s1 | % | 83 |
| CCN(CC)CCCCNc1ncc2cc(-c3c(Cl)cccc3Cl)c(NC(=O)NC(C)(C)C)nc2n1 | % | 28 |
| CN(C)CC(O)COc1ccc(Nc2nccc(-c3cnn4nc(N5CCOCC5)ccc34)n2)cc1 (centres unmarked) | % | 93.7 |
| CC(C)N1C(=O)Cc2cc(Nc3ncc(C(F)(F)F)c(NCc4cccc(S(C)(=O)=O)c4)n3)ccc21 | % | 0 |
| Cl.Oc1cc(-c2nc(-c3ccccc3)[nH]c2-c2ccncc2)ccc1Cl | % | 0 |
| Nc1nc(Nc2ccccc2)cc(-c2ccc3c(N)n[nH]c3c2)n1 | % | 0 |
| CNC(=O)c1ccccc1Sc1ccc2c(/C=C/c3ccccn3)n[nH]c2c1 | % | 0 |
| Cc1ccc(-n2nc(C(C)(C)C)cc2NC(=O)Nc2ccc(OCCN3CCOCC3)c3ccccc23)cc1 | % | 0 |
| CCn1c(-c2nonc2N)nc2c(C#CC(C)(C)O)nc(OCCN)cc21.Cl.Cl | % | 14 |
| Cc1occc1-c1nc(N)c(OC[C@@H](N)Cc2c[nH]c3ccccc23)cc1-c1cc2c(C)n[nH]c2cn1 | % | 93.3 |
| C[C@@H]1CCN(C(=O)CC#N)C[C@@H]1N(C)c1ncnc2[nH]ccc12 | % | 0 |
| Cl.Cl.Nc1nc(-c2ccc3c(N)n[nH]c3c2)cc(N2CCCC(NC(=O)c3ccccc3)C2)n1 (centres unmarked) | % | 0 |

---

Test system: WNK3
Details: concentration: 1 μM,replicates: in singlicate; n = 1

| MOLECULE | %Inh (%) |
| --- | --- |
| CCn1c(-c2nonc2N)nc2c(C#CC(C)(C)O)nc(OCCN)cc21.Cl.Cl | 28 |
| CN(C)CCOc1ccc(-c2cc(-c3c[nH]nc3-c3ccccn3)ccn2)cc1 | 0 |
| Cl.Oc1cc(-c2nc(-c3ccccc3)[nH]c2-c2ccncc2)ccc1Cl | 0 |
| CCN(CC)CCCCNc1ncc2cc(-c3c(Cl)cccc3Cl)c(NC(=O)NC(C)(C)C)nc2n1 | 0 |
| Cl.Cl.NC[C@H](CC1CCCCC1)NC(=O)c1cc(Br)c(-c2ccnc3[nH]ccc23)s1 | 5 |
| Cc1ccc2c(-c3ccncc3)c(-c3ccc(F)cc3)nn2c1.Cl | 26 |
| CCN(CC)CCOc1ccc(Nc2ncc3cc(-c4c(Cl)cccc4Cl)c(=O)n(C)c3n2)cc1 | 66 |
| Cc1n[nH]c2ccc(-c3cc(OC[C@@H](N)Cc4ccccc4)cnc3-c3ccoc3)cc12.O=C(O)C(F)(F)F.O=C(O)C(F)(F)F | 0 |
| Cc1cc(C(=O)Nc2ccc(Oc3ccc4nc(NC(=O)C5CC5)cn4n3)cc2)nn1-c1ccccc1 | 0 |
| Cl.Cl.Nc1nc(-c2ccc3c(N)n[nH]c3c2)cc(N2CCCC(NC(=O)c3ccccc3)C2)n1 (centres unmarked) | 19 |
| C[C@@H](Oc1cc(-c2cnn(C3CCNCC3)c2)cnc1N)c1c(Cl)ccc(F)c1Cl | 0 |
| CC(C)Nc1cc(-c2ccc3c(N)n[nH]c3c2)nc(N)n1 | 0 |
| C[C@@H]1CCN(C(=O)CC#N)C[C@@H]1N(C)c1ncnc2[nH]ccc12 | 0 |
| CC(C)N1C(=O)Cc2cc(Nc3ncc(C(F)(F)F)c(NCc4cccc(S(C)(=O)=O)c4)n3)ccc21 | 0 |
| C=CC(=O)Nc1cc2c(Nc3ccc(F)c(Cl)c3)ncnc2cc1OCCCN1CCOCC1 | 20 |
| NC(=O)c1cc(-c2ccccc2)cc2c(C3CCNCC3)c[nH]c12 | 17 |
| Nc1nc(Nc2ccccc2)cc(-c2ccc3c(N)n[nH]c3c2)n1 | 7 |

---

Here, each record is paired with measured %Inh data.
Test system: ERBB3
Conditions: concentration: 1 μM,replicates: in singlicate; n = 1

| COMPOUND SMILES | %Inh / % |
| --- | --- |
| CC(C)N1C(=O)Cc2cc(Nc3ncc(C(F)(F)F)c(NCc4cccc(S(C)(=O)=O)c4)n3)ccc21 | 13 |
| C=CC(=O)Nc1cc2c(Nc3ccc(F)c(Cl)c3)ncnc2cc1OCCCN1CCOCC1 | 83 |
| Cl.Cl.NC[C@H](CC1CCCCC1)NC(=O)c1cc(Br)c(-c2ccnc3[nH]ccc23)s1 | 0 |
| C[C@@H](Oc1cc(-c2cnn(C3CCNCC3)c2)cnc1N)c1c(Cl)ccc(F)c1Cl | 0 |
| O=C(NCCCN1CCOC1=O)c1cnc(NCc2cc(Cl)ccc2Cl)nc1NC1CCCC1 | 0 |
| CCN(CC)CCCCNc1ncc2cc(-c3c(Cl)cccc3Cl)c(NC(=O)NC(C)(C)C)nc2n1 | 68 |
| Cc1ccc(-n2nc(C(C)(C)C)cc2NC(=O)Nc2ccc(OCCN3CCOCC3)c3ccccc23)cc1 | 26 |

---

This section presents molecules with their documented %Inh values.
Test system: BTK
Conditions: concentration: 1 μM,replicates: in singlicate; n = 1

| MOLECULE | TESTED TARGET | %Inh, % |
| --- | --- | --- |
| C=CC(=O)Nc1cc2c(Nc3ccc(F)c(Cl)c3)ncnc2cc1OCCCN1CCOCC1 | BTK | 94 |
| CNC(=O)c1ccccc1Sc1ccc2c(/C=C/c3ccccn3)n[nH]c2c1 | BTK | 0 |
| Cc1cc(C(=O)Nc2ccc(Oc3ccc4nc(NC(=O)C5CC5)cn4n3)cc2)nn1-c1ccccc1 | BTK | 0 |
| C[C@H]1Oc2cc(cnc2N)-c2c(nn(C)c2C#N)CN(C)C(=O)c2ccc(F)cc21 | BTK | 0 |
| CN(C)CC(O)COc1ccc(Nc2nccc(-c3cnn4nc(N5CCOCC5)ccc34)n2)cc1 (stereo not shown) | BTK | 22 |
| O=C(NCCNc1ccnc(NCc2ccc(F)cc2)n1)c1cc2ccccc2s1 | BTK | 0 |
| CCN(CC)CCOc1ccc(Nc2ncc3cc(-c4c(Cl)cccc4Cl)c(=O)n(C)c3n2)cc1 | BTK | 100 |
| Cl.Cl.NC[C@H](CC1CCCCC1)NC(=O)c1cc(Br)c(-c2ccnc3[nH]ccc23)s1 | BTK | 0 |
| Cl.Cl.NC[C@H](Cc1ccc(C(F)(F)F)cc1)NC(=O)c1cc(Br)c(-c2ccnc3[nH]ccc23)s1 | BTK | 0 |
| CN(C)CCOc1ccc(-c2cc(-c3c[nH]nc3-c3ccccn3)ccn2)cc1 | BTK | 0 |
| Cl.Cl.Nc1nc(-c2ccc3c(N)n[nH]c3c2)cc(N2CCCC(NC(=O)c3ccccc3)C2)n1 (stereo not shown) | BTK | 0 |
| Cc1occc1-c1nc(N)c(OC[C@@H](N)Cc2c[nH]c3ccccc23)cc1-c1cc2c(C)n[nH]c2cn1 | BTK | 0 |
| CCn1c(-c2nonc2N)nc2c(C#CC(C)(C)O)nc(OCCN)cc21.Cl.Cl | BTK | 0 |
| COc1ccc(C[C@@H](CN)NC(=O)c2cc(Br)c(-c3ccnc4[nH]ccc34)s2)cc1.Cl.Cl | BTK | 0 |
| CCN(CC)CCCCNc1ncc2cc(-c3c(Cl)cccc3Cl)c(NC(=O)NC(C)(C)C)nc2n1 | BTK | 65 |
| Cc1n[nH]c2ccc(-c3cc(OC[C@@H](N)Cc4ccccc4)cnc3-c3ccoc3)cc12.O=C(O)C(F)(F)F.O=C(O)C(F)(F)F | BTK | 83 |

---

Test system: CDK5
Conditions: concentration: 1 μM,replicates: in singlicate; n = 1
Items are presented alongside their recorded %Inh.
MEASUREMENT TYPE: %Inh (%)

| COMPOUND SMILES | QUANTITATIVE RESULT |
| --- | --- |
| CCN(CC)CCOc1ccc(Nc2ncc3cc(-c4c(Cl)cccc4Cl)c(=O)n(C)c3n2)cc1 | 0 |
| Cl.Cl.NC[C@H](CC1CCCCC1)NC(=O)c1cc(Br)c(-c2ccnc3[nH]ccc23)s1 | 0 |
| Nc1nc(Nc2ccccc2)cc(-c2ccc3c(N)n[nH]c3c2)n1 | 0 |

---

Test system: TGFBR2
Conditions: concentration: 1 μM,replicates: in singlicate; n = 1
MEASUREMENT TYPE: %Inh (%)

| COMPOUND | QUANTITATIVE RESULT |
| --- | --- |
| CCN(CC)CCCCNc1ncc2cc(-c3c(Cl)cccc3Cl)c(NC(=O)NC(C)(C)C)nc2n1 | 61 |
| C[C@H]1Oc2cc(cnc2N)-c2c(nn(C)c2C#N)CN(C)C(=O)c2ccc(F)cc21 | 0 |
| CC(C)N1C(=O)Cc2cc(Nc3ncc(C(F)(F)F)c(NCc4cccc(S(C)(=O)=O)c4)n3)ccc21 | 0 |
| Cc1n[nH]c2ccc(-c3cc(OC[C@@H](N)Cc4ccccc4)cnc3-c3ccoc3)cc12.O=C(O)C(F)(F)F.O=C(O)C(F)(F)F | 0 |
| Nc1nc(Nc2ccccc2)cc(-c2ccc3c(N)n[nH]c3c2)n1 | 0 |
| Cl.Cl.NC[C@H](Cc1ccc(C(F)(F)F)cc1)NC(=O)c1cc(Br)c(-c2ccnc3[nH]ccc23)s1 | 0 |
| CCN(CC)CCOc1ccc(Nc2ncc3cc(-c4c(Cl)cccc4Cl)c(=O)n(C)c3n2)cc1 | 98 |
| CNC(=O)c1ccccc1Sc1ccc2c(/C=C/c3ccccn3)n[nH]c2c1 | 0 |
| Cc1ccc2c(-c3ccncc3)c(-c3ccc(F)cc3)nn2c1.Cl | 2 |
| NC(=O)c1cc(-c2ccccc2)cc2c(C3CCNCC3)c[nH]c12 | 0 |
| CN(C)CC(O)COc1ccc(Nc2nccc(-c3cnn4nc(N5CCOCC5)ccc34)n2)cc1 (stereo not drawn) | 78 |
| Cc1cc(C(=O)Nc2ccc(Oc3ccc4nc(NC(=O)C5CC5)cn4n3)cc2)nn1-c1ccccc1 | 21 |
